ENDPOINT NAME: melting point

The reported value for CS(=O)(=O)Nc1c(-c2cc(Cl)ccc2O)c2cc(C(F)(F)F)ccc2[nH]c1=O in terms of melting point is 263 to 265 °C

Looking up CC(C)(O)c1cc(Br)ccc1NC(=O)CCl , I found its melting point recorded as 133 to 134 °C

Lookup result for O=C1c2ccc(O)cc2C(=O)C1c1ccc(O)cc1 (stereo unspecified) ; measured melting point: 227 to 228 °C

Memo: Nc1cccc(-c2ccc(-c3cccc(CN4CC5C(N)C5C4)c3)cc2)n1 (stereo unspecified) , reported melting point: 184 to 196 °C

Entry COC(C)(CC(=O)Nc1cccc(OC(=O)NC(C)C)c1)OC ; melting point = 160 °C

Moving on to the next molecule.
GET /value?item= Cc1cccc(C(=O)NC(C)C)c1NC(=O)c1cnc(C(F)(F)F)nc1C &field=melting point returns 248 to 251 °C

Sourced from a melting point compilation (Tetko et al.; mined from patent text by program, amines drawn as free bases though some values may be those of a salt)
